Tested on: ICR mice
Experiment: Acute toxicity experiment of single oral administration in mice
Type: in vivo
Conditions: Day 4; female; 1000 mg/Kg single oral dose
measured endpoint: Daily Body Weight of Tested Female Mice (Mean ± SD) (g)
Numbers only, in g.

Some entries whose results are on file:
INSERT INTO results (molecule, u, value) VALUES
  ('CNc1cccc2c1C(=O)N(C1CCC(=O)N(CCOC)C1=O)C2=O (stereo not shown)', 'g', 23.2),
  ('COCCCCN1C(=O)CCC(N2C(=O)c3cccc(N)c3C2=O)C1=O (stereo not shown)', 'g', 24.0),
  ('C[S+]([O-])CCN1C(=O)CCC(N2C(=O)c3cccc(N)c3C2=O)C1=O (stereo not shown)', 'g', 22.6),
  ('CCOCCN1C(=O)CCC(N2C(=O)c3cccc(N)c3C2=O)C1=O (stereo not shown)', 'g', 22.8);

List the reported Daily Body Weight of Tested Female Mice (Mean ± SD) of each molecule below.
1. CSCCN1C(=O)CCC(N2C(=O)c3cccc(N)c3C2=O)C1=O (stereo not shown)
2. COCCN1C(=O)CCC(N2C(=O)c3cccc(NC(C)=O)c3C2=O)C1=O (stereo not shown)
3. COCCN1C(=O)CCC(N2C(=O)c3c(N)ccc(O)c3C2=O)C1=O (stereo not shown)
4. COCCCN1C(=O)CCC(N2C(=O)c3cccc(F)c3C2=O)C1=O (stereo not shown)
5. CCOCCN1C(=O)CCC(N2C(=O)c3cccc(F)c3C2=O)C1=O (stereo not shown)
6. COCCN1C(=O)CCC(N2C(=O)c3cccc(C)c3C2=O)C1=O (stereo not shown)
7. COCCN1C(=O)CCC(N2C(=O)c3cccc(F)c3C2=O)C1=O (stereo not shown)
8. COCCN1C(=O)CCC(N2C(=O)c3cccc(O)c3C2=O)C1=O (stereo not shown)

Result:
22.4
24.0
22.4
22.7
22.1
23.6
23.5
23.0

List the reported Daily Body Weight of Tested Female Mice (Mean ± SD) of each molecule below.
1. COCCCN1C(=O)CCC(N2C(=O)c3cccc(N)c3C2=O)C1=O (stereo not shown)
2. CS(=O)(=O)CCN1C(=O)CCC(N2C(=O)c3cccc(N)c3C2=O)C1=O (stereo not shown)
3. Nc1cccc2c1C(=O)N(C1CCC(=O)N(CCO)C1=O)C2=O (stereo not shown)
4. COCCCN1C(=O)CCC(N2C(=O)c3ccc(N)cc3C2=O)C1=O (stereo not shown)

Result:
[22.4, 21.8, 22.0, 24.8]
